These entries and their values trace back to the NIST ThermoML archive (doi:10.1021/je9010486).

Reported viscosity values are given for each entry in this list.
Measurement Notes: cn = amount concentration of the nth substance listed, in mol/dm3
Condition Context: 293.15 K; 101 kPa; Liquid; c1 = 0.1
Reported Property: viscosity (mPa·s)

> print(dat)
                                   compound  measured.result
1  OC[C@@H](O)[C@@H](O)CO [meso-1,2,3,4-butanetetrol] + O            1.047
2  OC[C@@H](O)[C@@H](O[C@H]1O[C@H](CO)[C@@H](O)[C@H](O)[C@H]1O)[C@H](O)[C@@H](O)CO [4-O-α-D-glucopyranosyl-D-glucitol] + O            1.274
3  OC[C@@H](O)[C@H](O)[C@@H](O)CO [xylitol] + O            1.068
4  OC[C@@H](O)[C@@H](O)[C@H](O)[C@@H](O)CO [D-sorbitol] + O            1.088
5  OC[C@@H](O)[C@@H](O)[C@H](O)[C@H](O)CO [mannitol] + O            1.096
